I'd be grateful if you could share measured IC50 for these entries.
tested-target: CYP17A1 (Homo sapiens, UniProt P05093)
Sequence (P05093 with tags, fused parts or gaps limits assumed): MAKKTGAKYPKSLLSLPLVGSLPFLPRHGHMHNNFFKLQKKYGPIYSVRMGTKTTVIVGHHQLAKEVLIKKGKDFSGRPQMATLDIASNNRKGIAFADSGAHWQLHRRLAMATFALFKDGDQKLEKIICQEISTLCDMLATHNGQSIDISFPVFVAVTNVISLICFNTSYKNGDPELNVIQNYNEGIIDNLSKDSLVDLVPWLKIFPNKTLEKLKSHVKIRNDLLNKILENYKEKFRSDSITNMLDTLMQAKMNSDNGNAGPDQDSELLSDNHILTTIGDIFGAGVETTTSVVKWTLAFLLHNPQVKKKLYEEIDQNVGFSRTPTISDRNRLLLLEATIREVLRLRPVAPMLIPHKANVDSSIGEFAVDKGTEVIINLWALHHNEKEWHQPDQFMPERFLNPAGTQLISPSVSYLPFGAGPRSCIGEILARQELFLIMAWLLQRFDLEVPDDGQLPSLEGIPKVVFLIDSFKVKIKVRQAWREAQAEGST
Give bare numbers, in µM.

C[C@]12CC[C@H](O)C[C@@H]1C(=NO)C[C@@H]1[C@@H]2CC[C@]2(C)C(c3cccnc3)=CC[C@@H]12 [13b]
0.0165

// switching to the query molecule
Query block: May I ask what IC50 has been recorded for C[C@]12CC[C@H]3[C@@H](C[C@@H]4O[C@@]45C[C@@H](O)CC[C@]35C)[C@@H]1CC=C2c1cccnc1 ?
Result block: 0.00783
